These measurements were taken from BigSolDB 2.1.

- PROTOCOL CONDITIONS: in water, 308.66 K
RECORDED ENDPOINT: solubility (mole fraction)
Returns: the value as a bare number; no unit string appended.

Report solubility (mole fraction) for `O=C(O)CCP(=O)(O)c1ccccc1` please. 0.00366

---

- PROTOCOL CONDITIONS: in water, 298.77 K
RECORDED ENDPOINT: solubility (mole fraction)
Returns: the value as a bare number; no unit string appended.

Report solubility (mole fraction) for O=P1(Oc2ccccc2)OCC2(CO1)COP(=O)(Oc1ccccc1)OC2 (stereo unspecified) please. 0.0002

---

Here, each record is paired with measured solubility (mole fraction) data.
- PROTOCOL CONDITIONS: in cyclohexane, 313.16 K
Returns: the value as a bare number; no unit string appended.

Below, each entry is followed by its recorded solubility (mole fraction) result.
> print(dat)
                   compound   number
1  O=C(O)CCP(=O)(O)c1ccccc1  0.00186
2        O=P(O)(CO)c1ccccc1   0.0015

--- query ---
Report solubility (mole fraction) for O=P1(O)OCC2(CO1)COP(=O)(O)OC2 (stereo not drawn) please. 0.00028

---

- PROTOCOL CONDITIONS: in toluene, 318.26 K
RECORDED ENDPOINT: solubility (mole fraction)
Returns: the value as a bare number; no unit string appended.

Report solubility (mole fraction) for O=P1(Oc2ccccc2)OCC2(CO1)COP(=O)(Oc1ccccc1)OC2 (stereo unspecified) please. 0.00285

---

- PROTOCOL CONDITIONS: in benzene, 293.16 K
RECORDED ENDPOINT: solubility (mole fraction)
Returns: the value as a bare number; no unit string appended.

> print(dat)
                                   molecule   number
1  O=P1(O)OCC2(CO1)COP(=O)(O)OC2 (stereo not given)  0.00031
2                        O=P(O)(CO)c1ccccc1   0.0009
3                  O=C(O)CCP(=O)(O)c1ccccc1  0.00081
4  COc1ccc(P(=O)(c2ccc(OC)cc2)c2ccc(OC)cc2)cc1  0.00031

--- query ---
Report solubility (mole fraction) for `COc1ccc(P(c2ccc(OC)cc2)c2ccc(OC)cc2)cc1` please. 0.00029

---

Here, each record is paired with measured solubility (mole fraction) data.
- PROTOCOL CONDITIONS: in diethyl ether, 293.16 K
Returns: the value as a bare number; no unit string appended.

Report solubility (mole fraction) for `COc1ccc(P(c2ccc(OC)cc2)c2ccc(OC)cc2)cc1` please. 0.00587

Report solubility (mole fraction) for `COc1ccc(P(=O)(c2ccc(OC)cc2)c2ccc(OC)cc2)cc1` please. 0.00607

Report solubility (mole fraction) for `O=P(O)(CO)c1ccccc1` please. 0.00113

---

- PROTOCOL CONDITIONS: in acetonitrile, 325.75 K
RECORDED ENDPOINT: solubility (mole fraction)
Returns: the value as a bare number; no unit string appended.

Report solubility (mole fraction) for O=P1(O)OCC2(CO1)COP(=O)(O)OC2 (stereo unspecified) please. 0.0025

---

- PROTOCOL CONDITIONS: in THF, 298.16 K
RECORDED ENDPOINT: solubility (mole fraction)
Returns: the value as a bare number; no unit string appended.

Report solubility (mole fraction) for O=P1(Oc2ccccc2)OCC2(CO1)COP(=O)(Oc1ccccc1)OC2 (stereo unspecified) please. 0.00615

---

- PROTOCOL CONDITIONS: in 2-butanone, 308.17 K
RECORDED ENDPOINT: solubility (mole fraction)
Returns: the value as a bare number; no unit string appended.

Report solubility (mole fraction) for O=P1(O)OCC2(CO1)COP(=O)(O)OC2 (stereo unspecified) please. 0.001

---

- PROTOCOL CONDITIONS: in acetone, 318.07 K
RECORDED ENDPOINT: solubility (mole fraction)
Returns: the value as a bare number; no unit string appended.

Report solubility (mole fraction) for O=P1(Oc2ccccc2)OCC2(CO1)COP(=O)(Oc1ccccc1)OC2 (stereo unspecified) please. 0.00479

---

- PROTOCOL CONDITIONS: in acetonitrile, 321.55 K
RECORDED ENDPOINT: solubility (mole fraction)
Returns: the value as a bare number; no unit string appended.

Report solubility (mole fraction) for O=P1(O)OCC2(CO1)COP(=O)(O)OC2 (stereo unspecified) please. 0.0017

---

- PROTOCOL CONDITIONS: in benzene, 304.76 K
RECORDED ENDPOINT: solubility (mole fraction)

Report solubility (mole fraction) for O=P1(Oc2ccccc2)OCC2(CO1)COP(=O)(Oc1ccccc1)OC2 (stereo unspecified) please. 0.00124

---

- PROTOCOL CONDITIONS: in 2-ethoxyethanol, 338.17 K
RECORDED ENDPOINT: solubility (mole fraction)
Returns: the value as a bare number; no unit string appended.

> print(dat)
                                   compound  number
1  O=P1(Oc2ccccc2)OCC2(CO1)COP(=O)(Oc1ccccc1)OC2 (configuration not stated)   0.014

--- query ---
Report solubility (mole fraction) for `COc1ccc(P(c2ccc(OC)cc2)c2ccc(OC)cc2)cc1` please. 0.0377

---

- PROTOCOL CONDITIONS: in 2-ethoxyethanol, 328.17 K
RECORDED ENDPOINT: solubility (mole fraction)

> print(dat)
                               smiles.entry  result
1  COc1ccc(P(=O)(c2ccc(OC)cc2)c2ccc(OC)cc2)cc1  0.0276

--- query ---
Report solubility (mole fraction) for `COc1ccc(P(c2ccc(OC)cc2)c2ccc(OC)cc2)cc1` please. 0.0255

---

- PROTOCOL CONDITIONS: in toluene, 303.18 K
Here, each record is paired with measured solubility (mole fraction) data.
Returns: the value as a bare number; no unit string appended.

Below, each entry is followed by its recorded solubility (mole fraction) result.
> print(dat)
                               smiles.entry   number
1                        O=P(O)(CO)c1ccccc1   0.0015
2  COc1ccc(P(=O)(c2ccc(OC)cc2)c2ccc(OC)cc2)cc1  0.00055
3                  O=C(O)CCP(=O)(O)c1ccccc1  0.00068

Report solubility (mole fraction) for `COc1ccc(P(c2ccc(OC)cc2)c2ccc(OC)cc2)cc1` please. 0.00051

---

- PROTOCOL CONDITIONS: in 1,4-dioxane, 338.15 K
RECORDED ENDPOINT: solubility (mole fraction)
Returns: the value as a bare number; no unit string appended.

Report solubility (mole fraction) for O=P1(O)OCC2(CO1)COP(=O)(O)OC2 (stereo unspecified) please. 0.00066

---

- PROTOCOL CONDITIONS: in 1,4-dioxane, 323.16 K
RECORDED ENDPOINT: solubility (mole fraction)

Report solubility (mole fraction) for O=P1(O)OCC2(CO1)COP(=O)(O)OC2 (stereo unspecified) please. 0.0005

---

Here, each record is paired with measured solubility (mole fraction) data.
- PROTOCOL CONDITIONS: in 2-butanone, 318.17 K

Below, each entry is followed by its recorded solubility (mole fraction) result.
> print(dat)
                               smiles.entry           recorded.endpoint   result
1                        O=P(O)(CO)c1ccccc1  solubility (mole fraction)   0.0027
2  COc1ccc(P(=O)(c2ccc(OC)cc2)c2ccc(OC)cc2)cc1  solubility (mole fraction)   0.0112
3   COc1ccc(P(c2ccc(OC)cc2)c2ccc(OC)cc2)cc1  solubility (mole fraction)  0.00962

Report solubility (mole fraction) for `O=C(O)CCP(=O)(O)c1ccccc1` please. 0.00206

---

- PROTOCOL CONDITIONS: in benzene, 313.16 K
RECORDED ENDPOINT: solubility (mole fraction)
Returns: the value as a bare number; no unit string appended.

> print(dat)
                                  molecule   number
1  COc1ccc(P(c2ccc(OC)cc2)c2ccc(OC)cc2)cc1  0.00068
2                       O=P(O)(CO)c1ccccc1   0.0019

Report solubility (mole fraction) for O=P1(O)OCC2(CO1)COP(=O)(O)OC2 (stereo not given) please. 0.0007

Report solubility (mole fraction) for `O=C(O)CCP(=O)(O)c1ccccc1` please. 0.00114

Report solubility (mole fraction) for `COc1ccc(P(=O)(c2ccc(OC)cc2)c2ccc(OC)cc2)cc1` please. 0.00076

---

- PROTOCOL CONDITIONS: in 2-ethoxyethanol, 343.15 K
RECORDED ENDPOINT: solubility (mole fraction)

Report solubility (mole fraction) for `COc1ccc(P(c2ccc(OC)cc2)c2ccc(OC)cc2)cc1` please. 0.0454
